# studySystem: UniProtKB O60678
# Sequence (O60678 whole entry): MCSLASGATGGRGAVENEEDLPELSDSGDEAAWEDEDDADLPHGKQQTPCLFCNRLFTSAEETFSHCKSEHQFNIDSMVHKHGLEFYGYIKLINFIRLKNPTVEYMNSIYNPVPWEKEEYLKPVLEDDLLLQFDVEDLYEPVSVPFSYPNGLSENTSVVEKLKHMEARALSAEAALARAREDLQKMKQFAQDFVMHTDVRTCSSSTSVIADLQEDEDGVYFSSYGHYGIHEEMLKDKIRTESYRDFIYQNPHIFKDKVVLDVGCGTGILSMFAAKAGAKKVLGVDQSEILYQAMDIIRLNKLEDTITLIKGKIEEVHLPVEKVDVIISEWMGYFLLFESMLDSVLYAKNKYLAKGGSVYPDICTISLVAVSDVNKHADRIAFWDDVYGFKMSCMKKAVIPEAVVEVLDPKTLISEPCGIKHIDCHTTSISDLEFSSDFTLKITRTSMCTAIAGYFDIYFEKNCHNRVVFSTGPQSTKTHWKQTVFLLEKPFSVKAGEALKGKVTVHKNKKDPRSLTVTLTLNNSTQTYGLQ
resultType: IC50

- compound: "Nc1ncnc2c1ncn2[C@@H]1O[C@H](CSCC[C@H](N)C(=O)O)[C@@H](O)[C@H]1O [S-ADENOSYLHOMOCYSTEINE]"
  val: "< 5 nM"

---

# studySystem: UniProt O14744
# Sequence (O14744 whole entry): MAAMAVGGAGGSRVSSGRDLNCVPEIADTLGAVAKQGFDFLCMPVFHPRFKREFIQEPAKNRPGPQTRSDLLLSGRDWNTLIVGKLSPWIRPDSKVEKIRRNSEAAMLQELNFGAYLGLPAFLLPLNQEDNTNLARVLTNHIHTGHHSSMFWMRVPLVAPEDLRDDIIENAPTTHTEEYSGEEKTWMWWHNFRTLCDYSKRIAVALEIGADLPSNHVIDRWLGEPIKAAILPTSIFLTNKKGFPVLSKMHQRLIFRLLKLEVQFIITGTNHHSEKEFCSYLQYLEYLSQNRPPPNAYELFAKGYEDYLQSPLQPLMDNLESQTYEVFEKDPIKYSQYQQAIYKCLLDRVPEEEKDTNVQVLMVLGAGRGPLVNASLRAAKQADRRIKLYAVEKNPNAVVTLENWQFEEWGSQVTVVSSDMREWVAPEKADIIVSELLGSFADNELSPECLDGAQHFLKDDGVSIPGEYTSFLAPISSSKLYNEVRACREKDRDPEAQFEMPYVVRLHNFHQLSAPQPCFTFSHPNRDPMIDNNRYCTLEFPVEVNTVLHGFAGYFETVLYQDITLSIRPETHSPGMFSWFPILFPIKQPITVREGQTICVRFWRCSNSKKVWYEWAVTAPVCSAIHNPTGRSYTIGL
resultType: IC50 (pM)

- compound: "NC(=O)[C@@H](N)CCCNCNCCCSC[C@H]1O[C@H](n2cnc3c(N)ncnc32)[C@H](O)[C@@H]1O"
  val: 420

---

# studySystem: Histone-arginine methyltransferase CARM1 (Homo sapiens)
# Sequence (Q86X55 whole entry): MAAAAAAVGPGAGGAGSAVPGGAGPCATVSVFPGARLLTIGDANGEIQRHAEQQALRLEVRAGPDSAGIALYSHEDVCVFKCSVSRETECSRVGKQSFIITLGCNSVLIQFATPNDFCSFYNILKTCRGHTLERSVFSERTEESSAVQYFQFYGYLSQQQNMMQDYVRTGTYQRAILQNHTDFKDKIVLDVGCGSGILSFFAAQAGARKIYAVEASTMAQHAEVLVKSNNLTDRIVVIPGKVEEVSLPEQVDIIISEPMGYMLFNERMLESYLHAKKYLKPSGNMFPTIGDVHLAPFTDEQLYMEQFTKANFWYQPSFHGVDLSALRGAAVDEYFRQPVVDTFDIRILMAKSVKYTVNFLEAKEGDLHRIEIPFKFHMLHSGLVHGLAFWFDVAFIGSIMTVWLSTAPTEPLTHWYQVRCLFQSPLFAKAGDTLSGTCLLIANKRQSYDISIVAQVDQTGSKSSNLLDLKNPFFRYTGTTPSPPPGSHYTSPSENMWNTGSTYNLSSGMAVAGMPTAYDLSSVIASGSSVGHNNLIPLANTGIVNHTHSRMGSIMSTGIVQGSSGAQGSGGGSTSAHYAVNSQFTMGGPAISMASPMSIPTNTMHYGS
# protocolDetails: Inhibition of CARM1 (unknown origin)
pIC50: −log10 of the molar value.
resultType: pIC50

- compound: "C[C@H](N)C(=O)Nc1ccc2c(c1)c(-c1cccc(S(=O)(=O)N(C)C)c1)cn2C"
  resultType: "pIC50"
  signQualifier: ">"
  val: 8.70
- compound: "OCCNCCNCc1ccccc1OCc1ccc(Cl)cc1Cl"
  resultType: "pIC50"
  signQualifier: "="
  val: 4.37
- compound: "CCOC(=O)c1cc(C(=O)NCc2ccccc2CCC(F)(F)F)n(-c2cccc(NC(=O)[C@H](C)N)c2)c1"
  resultType: "pIC50"
  signQualifier: "="
  val: 6.11
- compound: "N=C(NCCCN(CCNC(=O)NCc1ccccc1)C[C@H]1O[C@@H](n2cnc3c(N)ncnc32)[C@H](O)[C@@H]1O)Nc1cccc(Br)c1"
  resultType: "pIC50"
  signQualifier: ">"
  val: 9.00

---

A collection of compounds and their measured IC50
# studySystem: Histone-arginine methyltransferase CARM1 (Homo sapiens)
# protocolDetails: Inhibition of CARM1 (unknown origin)

- compound: "C[C@H](N)C(=O)NCc1cccc(-n2cc(C(F)(F)F)cc2C(=O)NCc2ccccc2)c1"
  IC50, nM: 7230
- compound: "C[S+](CC[C@H](N)C(=O)[O-])C[C@H]1O[C@@H](n2cnc3c(N)ncnc32)[C@H](O)[C@@H]1O (stereo partly drawn)"
  IC50, nM: 2.8
- compound: "C[C@H](N)C(=O)Nc1ccc2[nH]nc(-c3cccc(S(=O)(=O)N(C)C)c3)c2c1"
  IC50, nM: 500

---

# studySystem: UniProt Q86X55
# protocolDetails: Inhibition of PRMT4 (unknown origin)

- compound: "C[C@H](N)C(=O)Nc1ccc2[nH]nc(-c3cccc(S(=O)(=O)N(C)C)c3)c2c1"
  IC50, µM: 0.06

---

# studySystem: Histone-arginine methyltransferase CARM1 (Homo sapiens)
# Sequence (Q86X55 whole entry): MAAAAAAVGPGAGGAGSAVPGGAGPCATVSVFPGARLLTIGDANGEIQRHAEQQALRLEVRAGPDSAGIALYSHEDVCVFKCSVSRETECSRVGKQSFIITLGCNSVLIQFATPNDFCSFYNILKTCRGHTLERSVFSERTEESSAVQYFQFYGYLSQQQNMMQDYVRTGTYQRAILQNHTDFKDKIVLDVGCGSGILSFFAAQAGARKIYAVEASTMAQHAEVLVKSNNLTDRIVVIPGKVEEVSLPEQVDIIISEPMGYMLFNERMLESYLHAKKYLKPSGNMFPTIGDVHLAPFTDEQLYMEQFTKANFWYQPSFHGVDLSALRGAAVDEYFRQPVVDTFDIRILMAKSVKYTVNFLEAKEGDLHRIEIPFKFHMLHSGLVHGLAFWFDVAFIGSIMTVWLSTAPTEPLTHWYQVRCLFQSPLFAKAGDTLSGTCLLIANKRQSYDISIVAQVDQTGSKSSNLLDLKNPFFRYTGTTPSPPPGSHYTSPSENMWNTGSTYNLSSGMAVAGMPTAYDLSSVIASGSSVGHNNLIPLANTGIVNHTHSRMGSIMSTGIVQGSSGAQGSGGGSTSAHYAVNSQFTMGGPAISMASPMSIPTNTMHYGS
# protocolDetails: Inhibition of C-terminal His-tagged human CARM1 catalytic domain (135 to 479 residues) extracted from Escherichia coli BL21 CodonPlus (DE3)-RIL cells using (H3(3-31)) as substrate by enzymatic assay
Below is a list of entries, each paired with its recorded IC50 value.
resultType: IC50 (nM)

- compound: "Nc1ncnc2c1ncn2[C@H]1O[C@@H](CN(CCCNc2ccccn2)CC[C@H](N)C(=O)O)[C@H](O)[C@@H]1O"
  val: 1110
- compound: "NCCCN(CCCNc1ccccn1)C[C@@H]1O[C@H](n2cnc3c(N)ncnc32)[C@@H](O)[C@H]1O"
  val: 1140
